Taken from PubChem BioAssay (NCI).

The reader will find reported TGI values listed item by item below.
Test system: SF-268 CNS
test.description: NCI tumour cell line growth inhibition, 48 h

compound="COc1cccc2c1OCC1Cc3ccccc3OC21 (centres undefined)" observed_measurement="> 100 µM"
compound="S=C1NC2=C(CSC/C2=C\\c2ccccc2)C(c2ccccc2)N1 (centres undefined)" observed_measurement="> 100 µM"
compound="O=C(NN1C(=O)CSC1c1cccc(F)c1)c1ccncc1 (centres undefined)" observed_measurement="> 100 µM"
compound="C=CCNC(=O)N(CCC)CCCC(NC(C)=O)C(=O)NCc1ccccc1 (centres undefined)" observed_measurement="> 100 µM"
compound=CCOC(=O)c1sc2ncnc(N)c2c1C observed_measurement="> 100 µM"
compound=Cc1cc2c(cc1Cl)S/C(=C/C(=O)O)C(Nc1cccc3nsnc13)=NS2(=O)=O observed_measurement="> 84.4 µM"
compound=COc1ccc2[nH]c(-c3ccc(O)cc3)cc(=O)c2c1 observed_measurement="20.6 µM"
compound=O=S1(=O)C[C@@H](NCc2ccccc2)[C@H](NCc2ccccc2)C1 observed_measurement="> 100 µM"
compound=COc1cc2[nH]c(-c3ccccc3)cc(=O)c2c(OC)c1OC observed_measurement="> 100 µM"
compound="COP(=O)(OC)C(Nc1ccc(Cc2ccc(NC(c3ccco3)P(=O)(OC)OC)cc2)cc1)c1ccco1 (centres undefined)" observed_measurement="> 100 µM"

Inquiry: For the compound [2H]c1nc(=Nc2cc(NC(=O)C=C)c(N(C)CCN(C)C)cc2OC)[nH]c(-c2cn(C([2H])([2H])[2H])c3ccccc23)c1[2H] , give its reported TGI.
Reply text: 13 µM
